Assay: molar heat capacity at constant pressure
Conditions: 293.15 K; 101.33 kPa; Liquid; Small sample (50 mg) DSC
Please use TRUE for molar heat capacity at constant pressure under 200 J/K/mol and FALSE for everything else, ties included.

Task item: In plain terms, does CC(O)C(C)O (stereo not given) come in under 200 J/K/mol for molar heat capacity at constant pressure?
Reply: FALSE

Task item: In plain terms, does `CO` come in under 200 J/K/mol for molar heat capacity at constant pressure?
Reply: TRUE

Task item: In plain terms, does CC(O)CCO (stereo not given) come in under 200 J/K/mol for molar heat capacity at constant pressure?
Reply: FALSE

Task item: In plain terms, does CCC(O)CO (stereo not given) come in under 200 J/K/mol for molar heat capacity at constant pressure?
Reply: FALSE

* * *

Test: molar heat capacity at constant pressure
Conditions: 308.15 K; 101.33 kPa; Liquid; Small sample (50 mg) DSC
Output true for molar heat capacity at constant pressure not less than 200 J/K/mol; output false otherwise.

Task item: State whether the measured molar heat capacity at constant pressure reaches 200 J/K/mol, counting equality as reaching it, for CCC(O)CO (stereo not given)
Reply: true

Task item: State whether the measured molar heat capacity at constant pressure reaches 200 J/K/mol, counting equality as reaching it, for CC(O)C(C)O (stereo not given)
Reply: true

Task item: State whether the measured molar heat capacity at constant pressure reaches 200 J/K/mol, counting equality as reaching it, for `CO`
Reply: false

Task item: State whether the measured molar heat capacity at constant pressure reaches 200 J/K/mol, counting equality as reaching it, for CC(O)CCO (stereo not given)
Reply: true

Task item: State whether the measured molar heat capacity at constant pressure reaches 200 J/K/mol, counting equality as reaching it, for `OCCCCO`
Reply: true

* * *

Test: molar heat capacity at constant pressure
Settings: 318.15 K; 101.33 kPa; Liquid; Small sample (50 mg) DSC
Please respond with reported molar heat capacity at constant pressure for every item in the list.
Form entry: value (J/K/mol) — number only.

Lab note: measured molar heat capacity at constant pressure of CC(O)C(C)O (stereo not given) was 247.47

Lab note: measured molar heat capacity at constant pressure of `OCCCCO` was 215.39

Lab note: measured molar heat capacity at constant pressure of `CO` was 85.78

Lab note: measured molar heat capacity at constant pressure of CCC(O)CO (stereo not given) was 241.52

Lab note: measured molar heat capacity at constant pressure of CC(O)CCO (stereo not given) was 231.61

* * *

Test: molar heat capacity at constant pressure
Settings: 303.15 K; 101.33 kPa; Liquid; Small sample (50 mg) DSC
Please respond with reported molar heat capacity at constant pressure for every item in the list.
Form entry: value (J/K/mol) — number only.

Lab note: measured molar heat capacity at constant pressure of CCC(O)CO (stereo not given) was 233.5

Lab note: measured molar heat capacity at constant pressure of CC(O)CCO (stereo not given) was 222.06

Lab note: measured molar heat capacity at constant pressure of `OCCCCO` was 206.56

Lab note: measured molar heat capacity at constant pressure of CC(O)C(C)O (stereo not given) was 239.36

Lab note: measured molar heat capacity at constant pressure of `CO` was 82.38

* * *

Test: molar heat capacity at constant pressure
Conditions: 313.15 K; 101.33 kPa; Liquid; Small sample (50 mg) DSC
Numbers after ± are expanded uncertainties.
Please respond with reported molar heat capacity at constant pressure for every item in the list.

Lab note: measured molar heat capacity at constant pressure of `CO` was 84.56 ± 3.6 J/K/mol

Lab note: measured molar heat capacity at constant pressure of CC(O)C(C)O (stereo not given) was 244.77 ± 10 J/K/mol

Lab note: measured molar heat capacity at constant pressure of CC(O)CCO (stereo not given) was 228.37 ± 9.7 J/K/mol

Lab note: measured molar heat capacity at constant pressure of `OCCCCO` was 212.33 ± 9 J/K/mol

Lab note: measured molar heat capacity at constant pressure of CCC(O)CO (stereo not given) was 238.91 ± 10 J/K/mol
